- Tested on: human hepatocyte/liver (HepG2; ATCC #HB8065) cells
- experimental details: In vitro cytotoxicity (PrestoBlue cell viability), HepG2 cells
- condition label: HepG2, 72 h, read-out: Cell viability IC50, HepG2
assay metric: IC50 (µg/mL)
Dear colleague, please return just the value in µg/mL, with no unit written.

compound | IC50 / µg/mL
Cl.Cn1nnc(-c2ccc(-c3ccc(N4C[C@H](CNCCN)OC4=O)cc3F)cn2)n1 [AKG-19] | 42.2
CN(C)CCCn1nnc(-c2ccc(-c3ccc(N4C[C@H](CN)OC4=O)cc3F)cn2)n1.Cl (stereo in doubt) [AKG-30] | 18.9
CCN(CC)CCCn1nnc(-c2ccc(-c3ccc(N4C[C@H](CN)OC4=O)cc3F)cn2)n1.Cl [AKG-31] | 13.2

Note: attention shifts to another entry.
[in] Quick one: IC50 for CC(=O)NC[C@H]1CN(c2ccc(-c3ccc(-c4nnn(CCN(C)C)n4)nc3)c(F)c2)C(=O)O1 [AKG-38] ?
[out] 97
